- Tested on: LTC4
- assay: Antagonism in isolated guinea-pig trachea, Test method (i) (Table 3, given as LTC4 antagonism)
- Type: cell-based
- settings: Cavia porcellus, 5 min, test compound 10^-5 g/ml, given as LTC4 antagonisms
metric: inhibition at 10 µg/mL
Please format your answer as a value with the unit trailing.

In the examples that follow, each entry is paired with its recorded inhibition at 10 µg/mL.
[[record]]
compound = "CCn1ncc(NCCCOc2ccc(C)cc2)c(Cl)c1=O [compound 54]"
measured = "64%"

[[record]]
compound = "CCCc1cc(C(=O)O)ccc1OCC(CN(C)c1cnn(C(C)C)c(=O)c1Cl)OC (stereo not drawn) [compound 165]"
measured = "33%"

[[record]]
compound = "COc1ccc(CCNc2cnn(C(C)C)c(=O)c2Cl)cc1 [compound 55]"
measured = "72%"


Continue with the next compound.
What value of inhibition at 10 µg/mL has been recorded for this entry: COc1ccc(NCC(O)COc2cnn(C(C)C)c(=O)c2Cl)cc1OC (stereo not drawn) [compound 170]
17%

----------
- System: anaphylactic bronchoconstriction in passively sensitized guinea-pig
- assay: Effect on anaphylactic bronchoconstriction in passively sensitized guinea-pig
- Type: in vivo
- settings: Table 5-(2); 2 mg/kg i.v.; EA 0.1 mg/kg; PEG-400
metric: Inhibition (%)
Answer in %, number only, no unit symbol.

In the examples that follow, each entry is paired with its recorded Inhibition (%).
[[record]]
compound = "CCc1cc(C(=O)OC)ccc1OCCCNc1cnn(C(C)C)c(=O)c1Cl [compound 101]"
uom = "%"
measured = 51

[[record]]
compound = "CCn1ncc(NCCCOc2ccc(C(=O)OC)cc2C(C)C)c(Cl)c1=O [compound 103]"
uom = "%"
measured = 69

[[record]]
compound = "CCCc1cc(C(=O)OC)ccc1OCCCNc1cnn(CC)c(=O)c1Cl [Compound No. 6]"
uom = "%"
measured = 44


What value of Inhibition (%) has been recorded for this entry: CCCc1cc(C(N)=O)ccc1OCCCNc1cnn(C(C)C)c(=O)c1Cl [Compound No. 42]
31

What value of Inhibition (%) has been recorded for this entry: CCc1cc(C(N)=O)ccc1OCCCNc1cnn(C(C)C)c(=O)c1Cl [compound 102]
73

----------
A collection of compounds and their measured inhibition at 1 µg/mL
- Test system: LTD4
- assay: LTD4 antagonism in isolated guinea-pig trachea with indomethacin, Test method (ii) (Table 4)
- Format: cell-based
- settings: Cavia porcellus, 0.5 h, LTD4 2×10^-8 g/ml, test compound 10^-6 g/ml, 30 min prior, 5 μmol indomethacin
Answer in %, number only, no unit symbol.

Look up inhibition at 1 µg/mL with LTD4 for this compound: `CCCCc1cc(C(=O)OC)ccc1OCCCNc1cnn(CC)c(=O)c1Br`
69

Look up inhibition at 1 µg/mL with LTD4 for this compound: `CCCc1cc(OC)ccc1OCCCNc1cnn(CC)c(=O)c1Br`
57

Look up inhibition at 1 µg/mL with LTD4 for this compound: `CCc1cc(C=O)ccc1OCCCNc1cnn(CC)c(=O)c1Br`
65

Look up inhibition at 1 µg/mL with LTD4 for this compound: `CCCc1cc(O)ccc1OCCCNc1cnn(C(C)C)c(=O)c1Br`
86

Look up inhibition at 1 µg/mL with LTD4 for this compound: `CCCCc1cc(C(=O)O)ccc1OCCCNc1cnn(CC)c(=O)c1Br`
63

----------
- Test system: LTC4
- assay: Antagonism in isolated guinea-pig trachea, Test method (i) (Table 3, given as LTC4 antagonism)
- Assay type: cell-based
- settings: Cavia porcellus, 5 min, test compound 10^-5 g/ml, given as LTC4 antagonisms
- Protocol: (i) LTC4 and LTD4 antagonisms in guinea-pig trachea Antagonisms for LTC4 and LTD4 were determined in isolated guinea-pig trachea prepared as spiral strip. Tracheal preparations were suspended under 1 g tension in 10 ml organ baths and they were incubated for 1 hr prior to use. […] LTC4 - and LTD4 -induced contractions were expressed as a percentage of the maximal response to histamine. The antagonism was determined as follows: […]
Please enter YES where inhibition at 10 µg/mL is greater than or equal to 50%, and NO where it is lower.

The examples below pair each entry with its known result.
[[record]]
molecule = "CCCc1cc(C#N)ccc1OCC(CN(C)c1cnn(C(C)C)c(=O)c1Cl)OC (centres unmarked)"
class_label = "YES"

[[record]]
molecule = "CCOc1ccc(OCCCNc2cnn(CC)c(=O)c2Cl)cc1"
class_label = "YES"

[[record]]
molecule = "CCOc1ccccc1OCCCNc1cnn(CC)c(=O)c1Cl"
class_label = "YES"


Is reported inhibition at 10 µg/mL greater than or equal to 50% here: `CCn1ncc(OCCCOc2ccc(C(=O)O)cc2Cl)c(Cl)c1=O`
NO

----------
A collection of compounds and their measured inhibition at 10 µg/mL
- Test system: LTC4
- assay: Antagonism in isolated guinea-pig trachea, Test method (i) (Table 3, given as LTC4 antagonism)
- Format: cell-based
- settings: Cavia porcellus, 5 min, test compound 10^-5 g/ml, given as LTC4 antagonisms

In the examples that follow, each entry is paired with its recorded inhibition at 10 µg/mL.
[[record]]
compound = "CCCCc1cc(C(=O)OC)ccc1OCCCNc1cnn(CC)c(=O)c1Cl [compound 111]"
measured = "87%"

[[record]]
compound = "CCCc1cc(C(=O)OC)ccc1OCCCNc1cnn(C(C)(C)C)c(=O)c1Cl [Compound No. 3]"
measured = "28%"

[[record]]
compound = "CCCc1cc(C(=O)OC)ccc1OCCCN(C)c1cnn(C(C)C)c(=O)c1Cl [Compound No. 73]"
measured = "48%"

[[record]]
compound = "CCCc1cc(C#N)ccc1OCC(CNc1cnn(C(C)C)c(=O)c1Cl)OC (stereo not drawn) [Compound No. 158]"
measured = "93%"

[[record]]
compound = "CC(C)n1ncc(N(C)CCCOc2ccc(C(=O)CCC(=O)O)cc2)c(Cl)c1=O [compound 78]"
measured = "32%"


What value of inhibition at 10 µg/mL has been recorded for this entry: CCCc1cc(C(=O)O)ccc1OCCCNc1cnn(C(C)(C)C)c(=O)c1Cl [compound 5]
33%

What value of inhibition at 10 µg/mL has been recorded for this entry: CCCc1cc(-c2nnn[nH]2)ccc1OCCCNc1cnn(C(C)(C)C)c(=O)c1Cl [Compound No. 2]
15%

----------
A collection of compounds and their measured inhibition at 10 µg/mL
- System: LTC4
- assay: Antagonism in isolated guinea-pig trachea, Test method (i) (Table 3, given as LTC4 antagonism)
- Assay type: cell-based
- settings: Cavia porcellus, 5 min, test compound 10^-5 g/ml, given as LTC4 antagonisms
Answer in %, number only, no unit symbol.

In the examples that follow, each entry is paired with its recorded inhibition at 10 µg/mL.
[[record]]
compound = "COc1cccc(OCCOc2cnn(C(C)C)c(=O)c2Cl)c1 [compound 45]"
tgt = "LTC4"
metric = "inhibition at 10 µg/mL"
measured = 27

[[record]]
compound = "CCCc1cc(C(=O)OC)ccc1OCCCOc1cnn(C(C)C)c(=O)c1Cl [compound 85]"
tgt = "LTC4"
metric = "inhibition at 10 µg/mL"
measured = 78

[[record]]
compound = "CC(C)(C)n1ncc(NCCCOc2ccc(C(=O)O)cc2Cl)c(Cl)c1=O [Compound No. 9]"
tgt = "LTC4"
metric = "inhibition at 10 µg/mL"
measured = 14

[[record]]
compound = "CCn1ncc(NCCCOc2ccc(C)cc2OC)c(Cl)c1=O [compound 99]"
tgt = "LTC4"
metric = "inhibition at 10 µg/mL"
measured = 51

[[record]]
compound = "CCCc1cc(C(=O)O)ccc1SCC(O)CNc1cnn(C(C)C)c(=O)c1Cl (stereo not drawn) [Compound No. 154]"
tgt = "LTC4"
metric = "inhibition at 10 µg/mL"
measured = 20


Continue with the next compound.
What value of inhibition at 10 µg/mL has been recorded for this entry: C=CCc1cc(C#N)ccc1OCCCNc1cnn(CC)c(=O)c1Cl [compound 80]
98

----------
A collection of compounds and their measured inhibition at 10 µg/mL
- Tested on: LTC4
- assay: Antagonism in isolated guinea-pig trachea, Test method (i) (Table 3, given as LTC4 antagonism)
- Assay type: cell-based
- settings: Cavia porcellus, 5 min, test compound 10^-5 g/ml, given as LTC4 antagonisms
Answer in %, number only, no unit symbol.

[[record]]
compound = "COc1cccc(OCCCOc2cnn(C(C)(C)C)c(=O)c2Br)c1 [compound 34]"
measured = 61

[[record]]
compound = "CCCc1cc(C(=O)OC)ccc1OCC(CN(C)c1cnn(C(C)C)c(=O)c1Cl)OC (centres unmarked) [compound 164]"
measured = 71

[[record]]
compound = "CC(C)c1ccccc1OCC(O)COc1cnn(C(C)C)c(=O)c1Cl (centres unmarked) [compound 142]"
measured = 69


What value of inhibition at 10 µg/mL has been recorded for this entry: CCCc1ccccc1OCC(O)CNc1cnn(C(C)C)c(=O)c1Cl (centres unmarked) [compound 144]
84

What value of inhibition at 10 µg/mL has been recorded for this entry: CCn1ncc(NCCCOc2ccc(C(=O)O)cc2OC)c(Cl)c1=O [compound 52]
23
